- target-or-test-system: Histamine H3 receptor (Rattus norvegicus, UniProt Q9QYN8)
- Sequence (Q9QYN8 whole entry): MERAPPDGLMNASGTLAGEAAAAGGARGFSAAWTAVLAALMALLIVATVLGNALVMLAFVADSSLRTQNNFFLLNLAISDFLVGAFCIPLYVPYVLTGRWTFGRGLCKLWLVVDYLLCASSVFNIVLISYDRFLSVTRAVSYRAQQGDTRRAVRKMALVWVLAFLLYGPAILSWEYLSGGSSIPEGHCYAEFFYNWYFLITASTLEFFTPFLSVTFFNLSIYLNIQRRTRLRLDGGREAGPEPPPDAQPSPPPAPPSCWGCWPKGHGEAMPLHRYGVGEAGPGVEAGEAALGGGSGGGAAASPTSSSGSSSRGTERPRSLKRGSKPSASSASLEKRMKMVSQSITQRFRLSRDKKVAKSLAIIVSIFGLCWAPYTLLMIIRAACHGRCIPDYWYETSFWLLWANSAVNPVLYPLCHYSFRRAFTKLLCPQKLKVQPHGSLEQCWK
- experimental-protocol: Binding affinity for rat histamine H3 receptor on rat cortical cells
metric-name: pKi
Hey, just a heads up that pKi is the negative log base 10 of the concentration in molar.

Answered examples (5):
In [3]: df
Out[3]:
                               smiles_input  metric_name  reported
0  C[C@@H](NC(=O)CN1CCOCC1)C(=O)N1CCN(CCCOc2ccc(-c3noc(-c4ccccc4)n3)c(F)c2)CC1          pKi      8.09
1  C[C@@H](NC(=O)c1ccc(F)cc1)C(=O)N1CCN(CCCOc2ccc(-c3noc(CC4CCCC4)n3)c(F)c2)CC1          pKi      8.82
2  C[C@@H](NC(=O)C(C)(C)C)C(=O)N1CCN(CCCOc2ccc(-c3noc(CC4CCCC4)n3)c(F)c2)CC1          pKi      8.15
3  C[C@@H](NC(=O)c1cccc(Cl)c1)C(=O)N1CCN(CCCOc2ccc(-c3noc(CC4CCCC4)n3)c(F)c2)CC1          pKi      8.17
4  COc1ccccc1C(=O)N[C@H](C)C(=O)N1CCN(CCCOc2ccc(-c3noc(CC4CCCC4)n3)c(F)c2)CC1          pKi      8.15

According to the records, this molecule C[C@@H](NC(=O)c1cccnc1)C(=O)N1CCN(CCCOc2ccc(-c3noc(CC4CCCC4)n3)c(F)c2)CC1 displays pKi of 8.77

Form: molecule = CCOCC(=O)N[C@H](C)C(=O)N1CCN(CCCOc2ccc(-c3noc(-c4ccccc4)n3)c(F)c2)CC1 ; pKi = 8.00

Lab book: pKi of C[C@@H](NC(=O)c1ccc(N(C)C)cc1)C(=O)N1CCN(CCCOc2ccc(-c3noc(CC4CCCC4)n3)c(F)c2)CC1 noted as 8.62

Entry C[C@@H](NC(=O)c1ccco1)C(=O)N1CCN(CCCOc2ccc(C(=O)C3CC3)c(F)c2)CC1 , pKi reported as 8.89

For C[C@@H](NC(=O)c1ccco1)C(=O)N1CCCN(CCCOc2ccc(-c3noc(CC4CCCC4)n3)c(F)c2)CC1 the molecule record lists pKi as 9.08
